Below is a list of entries, each paired with its recorded EC50 value.
# TESTED_ON: short form of the GPR120 receptor (Homo sapiens)
# Sequence (Q5NUL3 whole entry): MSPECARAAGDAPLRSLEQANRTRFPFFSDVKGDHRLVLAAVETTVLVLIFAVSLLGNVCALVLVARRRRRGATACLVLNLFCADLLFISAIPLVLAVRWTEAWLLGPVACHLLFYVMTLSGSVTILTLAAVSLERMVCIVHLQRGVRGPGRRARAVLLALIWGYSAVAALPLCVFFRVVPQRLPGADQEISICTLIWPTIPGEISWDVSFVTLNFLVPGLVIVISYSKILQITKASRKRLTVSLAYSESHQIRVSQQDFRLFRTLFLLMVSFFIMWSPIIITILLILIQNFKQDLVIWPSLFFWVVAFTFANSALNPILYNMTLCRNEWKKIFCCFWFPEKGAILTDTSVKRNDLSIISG
# RUN_DESCRIPTION: Human GPR120 DiscoveRx PathHunter Beta-Arrestin assay, Procedure β-arrestin B
# CONDITION_NOTES: PathHunter CHO-K1 GPR120S β-Arrestin Cell Line, 5000 cells/well, read-out: hGPR120 β-arrestin B EC50
RECORDED_ENDPOINT: EC50 (µM)

[[record]]
compound = "COc1cnc(-c2nsc(C(F)(F)F)c2COc2c(F)cc(CCC(=O)O)cc2F)s1 [Cpd 267]"
tested_on = "short form of the GPR120 receptor (Homo sapiens)"
observed = 0.526

[[record]]
compound = "Cc1c(CCC(=O)O)ccc(OCc2c(-c3ncc(Cl)s3)nsc2C(F)(F)F)c1C [Cpd 269]"
tested_on = "short form of the GPR120 receptor (Homo sapiens)"
observed = 0.676

[[record]]
compound = "COc1cnc(-c2nsc(C(F)(F)F)c2COc2ccc(CCC(=O)O)c(C)c2C)s1 [Cpd 268]"
tested_on = "short form of the GPR120 receptor (Homo sapiens)"
observed = 0.445


----------
# TESTED_ON: long form of human GPR120 (Homo sapiens)
# Sequence (Q5NUL3 1-377 isoform Q5NUL3-1): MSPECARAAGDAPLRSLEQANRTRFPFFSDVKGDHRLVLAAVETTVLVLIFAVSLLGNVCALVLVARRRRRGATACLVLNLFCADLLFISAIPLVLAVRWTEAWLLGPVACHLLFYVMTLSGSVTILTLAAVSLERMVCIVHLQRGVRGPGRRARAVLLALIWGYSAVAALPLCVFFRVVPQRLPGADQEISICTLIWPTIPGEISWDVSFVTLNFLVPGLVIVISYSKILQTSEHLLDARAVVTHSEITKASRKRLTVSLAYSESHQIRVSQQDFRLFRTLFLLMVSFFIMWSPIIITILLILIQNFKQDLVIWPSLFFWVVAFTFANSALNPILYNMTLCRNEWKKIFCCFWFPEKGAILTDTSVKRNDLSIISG
# RUN_DESCRIPTION: Human GPR120 DiscoveRx PathHunter Beta-Arrestin assay, Procedure β-arrestin A
# CONDITION_NOTES: PathHunter CHO-K1 GPR120 β-Arrestin Cell Line, long form of human GPR120, 3000 cells per well; read-out: hGPR120 β-arrestin A EC50
Below is a list of entries, each paired with its recorded EC50 value.
RECORDED_ENDPOINT: EC50 (nM)

[[record]]
given_smiles = "O=C(O)CCc1ccc(OCc2c(C(F)(F)F)nsc2-c2ccc(Cl)cc2)c(Cl)c1Cl"
units = "nM"
observed = 176

[[record]]
given_smiles = "O=C(O)CCc1cc(F)c(OCc2c(Cl)nsc2-c2ccc(Cl)cc2)c(F)c1"
units = "nM"
observed = 141


----------
# TESTED_ON: Human GPR120 short form (Homo sapiens, UniProt Q5NUL3)
# Construct: expressed in transfected cells
# Sequence (Q5NUL3 whole entry): as the sequence (Q5NUL3 whole entry) above
# RUN_DESCRIPTION: Human GPR120 Calcium Flux Assay, Procedure Calcium A
# Format: cell-based
# CONDITION_NOTES: HEK-293 cells expressing Human GPR120 short form, FLIPR, 2500 cells / well; read-out: GPR120 Ca^2+ Assay A EC50
Below is a list of entries, each paired with its recorded EC50 value.
RECORDED_ENDPOINT: EC50 (nM)

[[record]]
compound = "Cc1ccccc1-c1snc(Cl)c1COc1cc(C(F)(F)F)c(CCC(=O)O)cc1F [Cpd 246]"
observed = 2350

[[record]]
compound = "O=C(O)CCc1ccc(OCc2c(C(F)(F)F)nsc2-c2ccc(Cl)cc2)c(Cl)c1Cl [Cpd 55]"
observed = 231

[[record]]
compound = "O=C(O)CCc1cc(F)c(OCc2c(-c3ccc(F)c(F)c3)nsc2C(F)(F)F)c(F)c1 [Cpd 129]"
observed = 125

[[record]]
compound = "O=C(O)CCc1cc(F)c(OCc2c(Cl)nsc2-c2ccc(Cl)cc2)c(F)c1 [Cpd 75]"
observed = 42


----------
# TESTED_ON: Human GPR120 short form (Homo sapiens, UniProt Q5NUL3)
# Construct: expressed in transfected cells
# RUN_DESCRIPTION: Human GPR120 Calcium Flux Assay, Procedure Calcium B
# Assay type: cell-based
# CONDITION_NOTES: HEK-293 cells expressing Human GPR120 short form, FLIPR, 4200 cells/well; read-out: GPR120 Ca^2+ Assay B EC50
pEC50: −log10 of the molar value.
RECORDED_ENDPOINT: pEC50

[[record]]
given_smiles = "COc1cnc(-c2nsc(C(F)(F)F)c2COc2c(F)cc(CCC(=O)O)cc2F)s1"
tested_on = "Human GPR120 short form (Homo sapiens, UniProt Q5NUL3)"
recorded_endpoint = "pEC50"
inequality_sign = "="
observed = 6.56

[[record]]
given_smiles = "Cc1c(CCC(=O)O)ccc(OCc2c(-c3ncc(Cl)s3)nsc2C(F)(F)F)c1C"
tested_on = "Human GPR120 short form (Homo sapiens, UniProt Q5NUL3)"
recorded_endpoint = "pEC50"
inequality_sign = "="
observed = 6.71

[[record]]
given_smiles = "COC(=O)CCc1cc(F)c(OCc2c(-c3ccc(Cl)cc3F)nsc2C(F)(F)F)c(F)c1"
tested_on = "Human GPR120 short form (Homo sapiens, UniProt Q5NUL3)"
recorded_endpoint = "pEC50"
inequality_sign = "<"
observed = 5.30

[[record]]
given_smiles = "COc1cnc(-c2nsc(C(F)(F)F)c2COc2ccc(CCC(=O)O)c(C)c2C)s1"
tested_on = "Human GPR120 short form (Homo sapiens, UniProt Q5NUL3)"
recorded_endpoint = "pEC50"
inequality_sign = "="
observed = 6.33

